All figures here come from patent US12599672B2.

Assignment: determine reported DC50 for the given compounds.
# Target entity: KRAS G12D (Homo sapiens, UniProt P01116, G12D)
# Construct: AsPc-1-KRAS (G12D)-HiBit-KI cell (Pharmaron); host or cells: AsPc-1-KRAS (G12D)-HiBit-KI cells (HiBiT knock-in at the endogenous KRAS locus)
# Sequence (P01116 1-188 isoform P01116-2 G12D): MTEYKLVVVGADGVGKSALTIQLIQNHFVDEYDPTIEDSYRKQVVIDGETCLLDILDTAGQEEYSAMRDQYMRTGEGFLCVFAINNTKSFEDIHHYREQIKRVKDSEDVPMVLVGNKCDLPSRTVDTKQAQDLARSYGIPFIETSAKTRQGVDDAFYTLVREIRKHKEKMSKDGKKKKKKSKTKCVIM
# Procedure text: KRAS G12D HiBit assay
# Type: cell-based
# Condition description: AsPc-1-KRAS (G12D)-HiBit-KI cell, compound treatment for 24 hours, absolute DC50; class symbols

Given the compound C#Cc1c(F)ccc2cccc(-c3ncc4c(N5CCC[C@@](C)(O)C5)nc(OCC5(CN6CCC(CN7CCN(c8cccc9c8n(C)c(=O)n9C8CCC(=O)NC8=O)CC7)CC6)CC5)nc4c3F)c12 (stereo partly shown) , what is its reported DC50? > 300 nM

Would you mind doing C#Cc1c(F)ccc2cccc(-c3ncc4c(N5CCC[C@@](C)(O)C5)nc(OCC5(CN6CC7(C6)CN(c6ccc8c(c6)n(C)c(=O)n8C6CCC(=O)NC6=O)C7)CC5)nc4c3F)c12 (stereo partly shown) as well? > 300 nM

Would you mind doing CCc1c(F)ccc2cc(O)cc(-c3ncc4c(N5CCC[C@@](C)(O)C5)nc(OC[C@@]56CCCN5[C@H](COC(=O)N5CC7(CCC(CN8CCC(c9ccc%10c(c9)n(C)c(=O)n%10C9CCC(=O)NC9=O)CC8)CC7)C5)CC6)nc4c3F)c12 (stereo partly shown) as well? < 100 nM

Would you mind doing C#Cc1c(F)ccc2cc(O)cc(-c3ncc4c(N5CCC[C@@](C)(O)C5)nc(OCC5(CN6CCC7(CC6)CC(N6CCC(c8ccc9c(c8)n(C)c(=O)n9C8CCC(=O)NC8=O)CC6)C7)CC5)nc4c3F)c12 (stereo partly shown) as well? < 100 nM

###

# Target entity: KRAS G12V (Homo sapiens, UniProt P01116, G12V)
# Construct: SW620-KRAS (G12V)-HiBit-KI cell (Pharmaron); host or cells: SW620-KRAS (G12V)-HiBit-KI cells (HiBiT knock-in at the endogenous KRAS locus)
# Sequence (P01116 1-188 isoform P01116-2 G12V): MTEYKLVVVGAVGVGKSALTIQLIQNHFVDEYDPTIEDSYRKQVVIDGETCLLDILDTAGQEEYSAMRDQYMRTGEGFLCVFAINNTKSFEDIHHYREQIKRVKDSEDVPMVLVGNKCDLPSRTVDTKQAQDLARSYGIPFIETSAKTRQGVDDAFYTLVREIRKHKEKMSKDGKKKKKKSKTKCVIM
# Procedure text: KRAS G12V HiBit assay
# Format: cell-based
# Condition description: SW620-KRAS (G12V)-HiBit-KI cells, compound treatment for 24 hours, class symbols
Reported endpoint: DC50

Given the compound CCc1c(F)ccc2cc(O)cc(-c3ncc4c(N5CC6CC6C5)nc(OC[C@@]56CCCN5[C@H](COC(=O)N5CCC7(CC5)CC(N5CCC(c8ccc9c(c8)n(C)c(=O)n9C8CCC(=O)NC8=O)CC5)C7)CC6)nc4c3F)c12 (some centres unmarked) , what is its reported DC50? 10 to 100 nM

Would you mind doing C#Cc1c(F)ccc2cc(O)cc(-c3ncc4c(N5CCC[C@@](C)(O)C5)nc(OC[C@@]56CCCN5[C@H](COC(=O)N5CCC(CN7CCC(c8cc9c(cc8F)n(C8CCC(=O)NC8=O)c(=O)n9C)CC7)CC5)CC6)nc4c3F)c12 (some centres unmarked) as well? < 10 nM

###

# Target entity: KRAS G12V (Homo sapiens, UniProt P01116, G12V)
# Construct: SW620-KRAS (G12V)-HiBit-KI cell (Pharmaron); host or cells: SW620-KRAS (G12V)-HiBit-KI cells (HiBiT knock-in at the endogenous KRAS locus)
# Procedure text: KRAS G12V HiBit assay
# Format: cell-based
# Condition description: SW620-KRAS (G12V)-HiBit-KI cells, compound treatment for 24 hours, class symbols
Assignment: determine reported DC50 for the given compounds.

API: value(readout= DC50, system= KRAS G12V (Homo sapiens, UniProt P01116, G12V), query= CCc1c(F)ccc2cc(O)cc(-c3ncc4c(N5CCC[C@@](C)(O)C5)nc(OC[C@@]56CCCN5[C@H](COC(=O)N5CCC(N7CC8(CCC(c9ccc%10c(c9)n(C)c(=O)n%10C9CCC(=O)NC9=O)CC8)C7)CC5)CC6)nc4c3F)c12 (stereo partly shown) ) < 10 nM

Would you mind doing CCc1c(F)ccc2cc(O)cc(-c3ncc4c(N5CCC[C@@](C)(O)C5)nc(OC[C@@]56CCCN5[C@H](COC(=O)N5CCC(OC7CCN(c8ccc9c(c8)n(C)c(=O)n9C8CCC(=O)NC8=O)CC7)CC5)CC6)nc4c3F)c12 (stereo partly shown) as well? < 10 nM

Would you mind doing CCc1c(F)ccc2cc(O)cc(-c3ncc4c(N5CCC[C@@](C)(O)C5)nc(OC[C@@]56CCCN5[C@H](COC(=O)N5CCC(C)(CN7CCN(c8ccc9c(c8)n(C)c(=O)n9C8CCC(=O)NC8=O)CC7)CC5)CC6)nc4c3F)c12 (stereo partly shown) as well? < 10 nM

Would you mind doing CCc1c(F)ccc2cc(O)cc(-c3ncc4c(N5CCC[C@@](C)(O)C5)nc(OC[C@@]56CCCN5[C@H](COC(=O)N5CCC(CN7CCC(c8cc9c(cc8F)n(C8CCC(=O)NC8=O)c(=O)n9C)CC7)CC5)CC6)nc4c3F)c12 (stereo partly shown) as well? < 10 nM

###

# Target entity: KRAS G12D (Homo sapiens, UniProt P01116, G12D)
# Construct: AsPc-1-KRAS (G12D)-HiBit-KI cell (Pharmaron); host or cells: AsPc-1-KRAS (G12D)-HiBit-KI cells (HiBiT knock-in at the endogenous KRAS locus)
# Procedure text: KRAS G12D HiBit assay
# Format: cell-based
# Condition description: AsPc-1-KRAS (G12D)-HiBit-KI cell, compound treatment for 24 hours, absolute DC50; class symbols
Assignment: determine reported DC50 for the given molecules.

API: value(readout= DC50, system= KRAS G12D (Homo sapiens, UniProt P01116, G12D), query= CCc1c(F)ccc2cc(O)cc(-c3ncc4c(N5CCC[C@@](C)(O)C5)nc(OC[C@@]56CCCN5[C@H](CNC(=O)c5ccc(CN7CCC(c8ccc9c(c8)n(C)c(=O)n9C8CCC(=O)NC8=O)CC7)cc5)CC6)nc4c3F)c12 (stereo partly drawn) ) < 100 nM

Would you mind doing C#Cc1c(F)ccc2cc(O)cc(-c3ncc4c(N5CCC[C@@](C)(O)C5)nc(OCC5(CN6CCN(Cc7cccc8c7n(C)c(=O)n8C7CCC(=O)NC7=O)CC6)CC5)nc4c3F)c12 (stereo partly drawn) as well? > 300 nM

Would you mind doing CCc1c(F)ccc2cc(O)cc(-c3ncc4c(N5CCC[C@@](C)(O)C5)nc(OC[C@@]56CCCN5[C@H](COC(=O)NCCOCCOCCOc5ccc7c(c5)n(C)c(=O)n7C5CCC(=O)NC5=O)CC6)nc4c3F)c12 (stereo partly drawn) as well? > 300 nM

###

Assignment: determine reported DC50 for the given compounds.
# Target entity: KRAS G12D (Homo sapiens, UniProt P01116, G12D)
# Construct: AsPc-1-KRAS (G12D)-HiBit-KI cell (Pharmaron); host or cells: AsPc-1-KRAS (G12D)-HiBit-KI cells (HiBiT knock-in at the endogenous KRAS locus)
# Procedure text: KRAS G12D HiBit assay
# Type: cell-based
# Condition description: AsPc-1-KRAS (G12D)-HiBit-KI cell, compound treatment for 24 hours, absolute DC50; class symbols

Given the compound CCc1cccc2cc(O)cc(-c3ncc4c(N5CCC[C@@](C)(O)C5)nc(OC[C@@]56CCCN5[C@H](COC(=O)N5CCC7(CC5)CC(N5CCC(c8ccc9c(c8)n(C)c(=O)n9C8CCC(=O)NC8=O)CC5)C7)CC6)nc4c3F)c12 (some centres unmarked) , what is its reported DC50? < 0.1 µM

Would you mind doing C#Cc1c(F)ccc2cccc(-c3ncc4c(N5CCC[C@@](C)(O)C5)nc(OCC5(CN6CCC7(CC6)CC(N6CCC(c8ccc9c(C%10CCC(=O)NC%10=O)nn(C)c9c8)CC6)C7)CC5)nc4c3F)c12 (some centres unmarked) as well? > 0.3 µM

Would you mind doing CCc1c(F)ccc2cc(O)cc(-c3ncc4c(N5CCC[C@@](C)(O)C5)nc(OC[C@@]56CCCN5[C@H](CN(C)C(=O)c5ccc(CN7CCC(c8ccc9c(c8)n(C)c(=O)n9C8CCC(=O)NC8=O)CC7)cc5)CC6)nc4c3F)c12 (some centres unmarked) as well? < 0.1 µM

Would you mind doing C#Cc1c(F)ccc2cc(O)cc(-c3ncc4c(N5CCC[C@@](C)(O)C5)nc(OCC5(CN6CCC7(CC6)CN(c6ccc8c(c6)n(C)c(=O)n8C6CCC(=O)NC6=O)C7)CC5)nc4c3F)c12 (some centres unmarked) as well? > 0.3 µM

Would you mind doing Cn1c(=O)n(C2CCC(=O)NC2=O)c2cc(F)c(C3CCN(CC4CCN(C(=O)OC[C@@H]5CC[C@]6(COc7nc(N8CCC[C@@](C)(O)C8)c8cnc(-c9cc(O)cc%10ccc(F)cc9%10)c(F)c8n7)CCCN56)CC4)CC3)cc21 (some centres unmarked) as well? < 0.1 µM

Would you mind doing C#Cc1c(F)ccc2cc(O)cc(-c3ncc4c(N5CCCCCC5)nc(OCC5(CN6CCN(CC7CCN(c8ccc9c(c8)n(C)c(=O)n9C8CCC(=O)NC8=O)CC7)CC6)CC5)nc4c3F)c12 (centres unmarked) as well? < 0.1 µM

Would you mind doing CCc1c(F)ccc2cc(O)cc(-c3ncc4c(N5CCC[C@@](C)(O)C5)nc(OC[C@@]56CCCN5[C@H](COC(=O)N5CCC(C7(N8CCC(c9ccc%10c(c9)n(C)c(=O)n%10C9CCC(=O)NC9=O)CC8)CC7)CC5)CC6)nc4c3F)c12 (some centres unmarked) as well? < 0.1 µM

Would you mind doing Cn1c(=O)n(C2CCC(=O)NC2=O)c2ccc(N3CCC(CN4CCN(C(=O)OC[C@@H]5CC[C@]6(COc7nc(N8CCC[C@@](C)(O)C8)c8cnc(-c9cc(O)cc%10ccc(F)cc9%10)c(F)c8n7)CCCN56)CC4)CC3)cc21 (some centres unmarked) as well? < 0.1 µM

Would you mind doing C#Cc1c(F)ccc2cc(O)cc(-c3ncc4c(N5CCC[C@@](C)(O)C5)nc(OC[C@@]56CCCN5[C@H](COC(=O)N5CCC(COC7CN(c8ccc9c(c8)n(C)c(=O)n9C8CCC(=O)NC8=O)C7)CC5)CC6)nc4c3F)c12 (some centres unmarked) as well? < 0.1 µM

Would you mind doing CCc1c(F)ccc2cc(O)cc(-c3ncc4c(N5CCC[C@@](C)(O)C5)nc(OC[C@@]56CCCN5[C@H](COC(=O)N5CCC(OCCC#Cc7ccc8c(c7)n(C)c(=O)n8C7CCC(=O)NC7=O)CC5)CC6)nc4c3F)c12 (some centres unmarked) as well? < 0.1 µM

Would you mind doing CCc1c(F)ccc2cc(O)cc(-c3ncc4c(N5CCC[C@@](C)(O)C5)nc(OC[C@@]56CCCN5[C@@H](COC(=O)N5CCC(CCCCOc7ccc8c(c7)n(C)c(=O)n8C7CCC(=O)NC7=O)CC5)CC6)nc4c3F)c12 (some centres unmarked) as well? < 0.1 µM

Would you mind doing Cn1c(=O)n(C2CCC(=O)NC2=O)c2ccc(C3CCN(CC4CCN(C(=O)OC[C@@H]5CC[C@]6(COc7nc(N8CCC[C@@](C)(O)C8)c8cnc(-c9cc(O)cc%10ccc(F)c(F)c9%10)c(F)c8n7)CCCN56)CC4)CC3)cc21 (some centres unmarked) as well? < 0.1 µM

Would you mind doing C#Cc1c(F)ccc2cc(O)cc(-c3ncc4c(N5CCC[C@@](C)(O)C5)nc(OC[C@@]56CCCN5[C@H](COC(=O)N5CCC(N7CCC(c8ccc9c(c8)n(C)c(=O)n9C8CCC(=O)NC8=O)CC7)CC5)CC6)nc4c3F)c12 (some centres unmarked) as well? > 0.3 µM

Would you mind doing CCc1c(F)ccc2cc(O)cc(-c3ncc4c(N5CCC[C@@](C)(O)C5)nc(OC[C@@]56CCCN5[C@H](COC(=O)N5CCC(F)(CN7CCC(c8ccc9c(c8)n(C)c(=O)n9C8CCC(=O)NC8=O)CC7)CC5)CC6)nc4c3F)c12 (some centres unmarked) as well? < 0.1 µM

Would you mind doing CCc1c(F)ccc2cc(O)cc(-c3ncc4c(N5CCC[C@@](C)(O)C5)nc(OC[C@@]56CCCN5[C@H](COC(=O)N5CCC7(CC5)CN(C5CCN(c8ccc9c(c8)n(C)c(=O)n9C8CCC(=O)NC8=O)CC5)C7)CC6)nc4c3F)c12 (some centres unmarked) as well? < 0.1 µM

Would you mind doing C#Cc1c(F)ccc2cccc(-c3ncc4c(N5CCC[C@@](C)(O)C5)nc(OC[C@@]56CCCN5[C@H](COC(=O)NCCOCCOCCOc5ccc7c(c5)n(C)c(=O)n7C5CCC(=O)NC5=O)CC6)nc4c3F)c12 (some centres unmarked) as well? > 0.3 µM

Would you mind doing CCc1c(F)ccc2cc(O)cc(-c3ncc4c(N5CCC[C@@](C)(O)C5)nc(OC[C@@]56CCCN5[C@@H](COC(=O)N5CCC(CN7CCC(c8ccc9c(c8)n(C)c(=O)n9C8CCC(=O)NC8=O)CC7)CC5)CC6)nc4c3F)c12 (some centres unmarked) as well? < 0.1 µM
